- assayNotes: Growth inhibition of human MOLT4 cells incubated for 48 hrs by sulforhodamine B assay
- Type: functional
- measurementContext: MOLT-4, 48 h, read-out: GI50
endpointName: GI50 (nM)
# unit: nM | format: bare number

chemicalSmiles | unitAbbreviation | GI50
c1ccc2[nH]c(-c3ccc(Nc4nc(N5CCCCC5)nc(N5CCOCC5)n4)cc3)nc2c1 | nM | 2730
c1ccc(-c2nc(Nc3ccc(-c4nc5ccccc5[nH]4)cc3)nc(N3CCOCC3)n2)cc1 | nM | 1330
Fc1ccc(-c2nc(Nc3ccc(-c4nc5ccccc5[nH]4)cc3)nc(N3CCOCC3)n2)cc1 | nM | 2150

Next molecule, GI50 to be filled in.
Endpoint output: GI50 of `Clc1ccc(-c2nc(Nc3ccc(-c4nc5ccccc5[nH]4)cc3)nc(N3CCOCC3)n2)cc1` . Value?
217

---

- assayNotes: Growth inhibition of human OVCAR3 cells incubated for 48 hrs by sulforhodamine B assay
- Type: functional
- measurementContext: OVCAR-3, 48 h, read-out: pGI50 (converted)
Items are presented alongside their recorded GI50.
Return type: number; implicit unit µM.

Give its GI50 value. Item: `Fc1ccc(-c2nc(Nc3ccc(-c4nc5ccccc5[nH]4)cc3)nc(N3CCOCC3)n2)cc1`
1.82

Suppose we examine the compound `Clc1ccc(-c2nc(Nc3ccc(-c4nc5ccccc5[nH]4)cc3)nc(N3CCOCC3)n2)cc1` ; what GI50 value has been reported?
0.372

What does the data say about its GI50? Entry: `c1ccc2[nH]c(-c3ccc(Nc4nc(N5CCCCC5)nc(N5CCOCC5)n4)cc3)nc2c1`
2.4

Which GI50 reading was recorded for the compound `c1ccc(-c2nc(Nc3ccc(-c4nc5ccccc5[nH]4)cc3)nc(N3CCOCC3)n2)cc1` ?
1.51

---

- assayNotes: Growth inhibition of human SNB75 cells assessed as cell growth at 10 uM incubated for 48 hrs by sulforhodamine B assay
- Type: functional
- measurementContext: SNB-75, 48 h, read-out: Activity
endpointName: growth at 10 µM (%)
Write the number in % without appending the unit.

Previously resolved entries follow.
chemicalSmiles | unitAbbreviation | assayResult
Fc1ccc(-c2nc(Nc3ccc(-c4nc5ccccc5[nH]4)cc3)nc(N3CCOCC3)n2)cc1 | % | -19.2
Clc1ccc(-c2nc(Nc3ccc(-c4nc5ccccc5[nH]4)cc3)nc(N3CCOCC3)n2)cc1 | % | -92.6
c1ccc2[nH]c(-c3ccc(Nc4nc(N5CCCCC5)nc(N5CCOCC5)n4)cc3)nc2c1 | % | -0.68

Consider the molecule shown here: `c1ccc(-c2nc(Nc3ccc(-c4nc5ccccc5[nH]4)cc3)nc(N3CCOCC3)n2)cc1` What is its recorded growth at 10 µM?
-89.7

---

- assayNotes: Growth inhibition of human SF268 cells assessed as cell growth at 10^-6 M incubated for 48 hrs by sulforhodamine B assay
- Type: functional
- measurementContext: SF-268, 48 h, read-out: Activity
endpointName: growth at 1 µM
Don't forget the unit after the number, please.

Example cases with answers are listed next.
chemicalSmiles | growth at 1 µM
c1ccc2[nH]c(-c3ccc(Nc4nc(N5CCCCC5)nc(N5CCOCC5)n4)cc3)nc2c1 | 96%
c1ccc(-c2nc(Nc3ccc(-c4nc5ccccc5[nH]4)cc3)nc(N3CCOCC3)n2)cc1 | 86%
Clc1ccc(-c2nc(Nc3ccc(-c4nc5ccccc5[nH]4)cc3)nc(N3CCOCC3)n2)cc1 | 3%

Let's switch to this compound now.
Value lookup for growth at 1 µM; key = `Fc1ccc(-c2nc(Nc3ccc(-c4nc5ccccc5[nH]4)cc3)nc(N3CCOCC3)n2)cc1`
89%
